These data points were gathered from PubChem BioAssay (NCATS).

- assay-overview: qHTS of pediatric cancer cell lines to identify multiple opportunities for drug repurposing: Primary screen for MG 63 (6-TG R) cells (AID 1347105); further: nearly all actives have a fitted effect of over 50% in size
- details: MG 63 (6-TG R) viability, CellTiter-Glo, 48 h; series mostly up to 46 µM
- Description: Drug repurposing or repositioning has been offered as a strategy for drug development in oncology programs. This approach has special potential for childhood cancers and other rare or orphan diseases, where the expected return on new drug development has been a disincentive to pharmaceuticals. […] We employed a titration-based paradigm (quantitative high-throughput screening or qHTS), where all compounds were tested at multiple concentrations for their effect on cell viability. […]
Results filed as inconclusive are left out. Calls of active or inactive are those of the source. The call rests on the fitted dose curve; in most records, active means well fitted cell-killing curve with a large enough effect; inconclusive means small, poorly fitted or top-dose-only effect; inactive means no such curve, though single readings can be large or run the other way.
Labels: True for active, False for inactive

compound: CC=C1C2C=C(C)CC1(N)c1ccc(=O)[nH]c1C2 (centres undefined)
classification: False
--
compound: C=C1c2cccc(O)c2C(O)=C2C(=O)[C@@]3(O)C(O)=C(C(N)=O)C(=O)[C@@H](N(C)C)[C@@H]3[C@@H](O)[C@H]12
classification: False
--
compound: NC[C@H]1O[C@H](O[C@@H]2[C@@H](O)[C@@H](O[C@H]3O[C@H](CO)[C@@H](O)[C@H](N)[C@@H]3O)[C@H](N)C[C@@H]2N)[C@H](O)[C@@H](O)[C@H]1O
classification: False
--
compound: CCC(=C(CC)c1ccc(O)cc1)c1ccc(O)cc1
classification: True
--
compound: NCC1CCC(C(=O)O)CC1 (centres undefined)
classification: False
--
compound: COc1ccc(-c2nc3ccc(C4=NNC(=O)CC4C)cc3[nH]2)cc1 (centres undefined)
classification: False
--
compound: COc1cccc(OC)c1-c1cc(C(=O)NC2(C(=O)O)C3CC4CC(C3)CC2C4)nn1-c1ccnc2cc(Cl)ccc12 (centres undefined)
classification: False
--
compound: CCN(CC)CCCCNc1nc2cc(Cl)c(Cl)cc2nc1-c1ccc(-c2cccs2)s1
classification: True
--
compound: O=C(O)Cc1cccc(OCCCN(Cc2cccc(C(F)(F)F)c2Cl)CC(c2ccccc2)c2ccccc2)c1
classification: True

###

- assay-overview: Drug repurposing screens with cells derived from glioblastoma tumor samples (AID 1345199); further: on the % scale 0 is the no-effect control and ±100 the full control effect; nearly all actives have a fitted effect of over 40% in size
- details: GBM patient neurospheres viability, ATP luminescence, 48 h; at 45.9 µM (top of the series); tumour line D
- Procedure: CD133+ cells were isolated from GBM patient biopsies and cultured as neurospheres. Neurospheres from four patients were used to screen the NCATS pharmaceutical collection (NPC) library of approved drugs and bioactive compounds. […] The neurospheres were incubated with drugs for 48 hours in 1536-well format, then assayed with an ATP content cell viability assay. […]
Records with an inconclusive call do not appear.
Listing of entries alongside the reported activity, negative = cell killing.

compound: COc1cc2c(cc1OC)CC(=O)N(CCCN(C)C[C@H]1Cc3cc(OC)c(OC)cc31)CC2
unit-of-measurement: %
activity, negative = cell killing: -19.2
//
compound: N#Cc1c(N(CC(=O)O)CC(=O)O)sc(C(=O)O)c1CC(=O)O
unit-of-measurement: %
activity, negative = cell killing: 0.729
//
compound: O=C(Nc1cccc2c(=O)cc(-c3nn[nH]n3)oc12)c1ccc(OCCCCc2ccccc2)cc1
unit-of-measurement: %
activity, negative = cell killing: -5.85
//
compound: O=C(CCCN1CCN(c2ccc(F)cc2)CC1)NC1c2ccccc2CSc2ccccc21 (configuration not stated)
unit-of-measurement: %
activity, negative = cell killing: -27.4
//
compound: COc1ccnc(CS(=O)c2nc3ccc(OC(F)F)cc3[nH]2)c1OC (configuration not stated)
unit-of-measurement: %
activity, negative = cell killing: -22.5
//
compound: CN1CCN2c3ncccc3Cc3ccccc3C2C1 (configuration not stated)
unit-of-measurement: %
activity, negative = cell killing: -14.6
//
compound: O=C(O)c1nc(=O)[nH]c(=O)[nH]1
unit-of-measurement: %
activity, negative = cell killing: 6.49
//
compound: CCCCCCCCCCCCCCCC(=O)O[C@H]1[C@@H](O)[C@@H](O)[C@@H]([C@H](NC(=O)[C@@H]2C[C@@H](CCC)CN2C)[C@H](C)Cl)O[C@@H]1SC
unit-of-measurement: %
activity, negative = cell killing: -15.1
//
compound: CC(C)(CO)[C@@H](O)C(=O)NCCC(=O)O
unit-of-measurement: %
activity, negative = cell killing: -3.38
//
compound: CCCCC(F)(F)[C@@]1(O)CC[C@H]2[C@H](CC(=O)[C@@H]2CCCCCCC(=O)O)O1
unit-of-measurement: %
activity, negative = cell killing: -10.8
//
compound: CCC[C@H](N[C@@H](C)C(=O)N1[C@@H]2CCCC[C@H]2C[C@H]1C(=O)O)C(=O)OCC
unit-of-measurement: %
activity, negative = cell killing: -19.1
//
compound: CN1CC(=O)N2C(Cc3c([nH]c4ccccc34)[C@H]2c2ccc3c(c2)OCO3)C1=O (some centres not stated)
unit-of-measurement: %
activity, negative = cell killing: -11.4

###

- assay-overview: Quantitative High-Throughput drug screen in 47 multiple myeloma cell lines against the NCATS MIPE library collection: JJN3_DSMZ cell viability assay (AID 1918966; further: nearly all actives have a fitted effect of over 50% in size)
- details: JJN3 myeloma cells viability, CellTiter-Glo ATP, 48 h; series mostly up to 45.8 µM
- Excerpt: PI: Beverly A. Mock Ph.D. Laboratory of Cancer Biology and Genetics, Center for Cancer Research, National Cancer Institute, National Institute of Health, Bethesda, Maryland […] 5; Detector; 425V; Luminescence; Viewlux PerkinElmer. […] 1. […] Briefly, the corresponding myeloma cell lines were screened in 1,536-well plates with 500 cells, 5-uL per well for inhibition of cell viability (assessed by measuring ATP levels with CellTiterGlo). […]
Records with an inconclusive call do not appear. Active and inactive are the calls of the source. The call rests on the fitted dose curve; in most records, active means well fitted cell-killing curve with a large enough effect; inconclusive means small, poorly fitted or top-dose-only effect, or effect the other way; inactive means no such curve, though single readings can be large or run the other way.
Labels: label 1 = active, label 0 = inactive

compound: CCCCCCOC(=O)N=C(N)c1ccc(NCc2nc3cc(C(=O)N(CCC(=O)OCC)c4ccccn4)ccc3n2C)cc1
classification: label 1

compound: CCOC(=O)N1c2ccc(C(F)(F)F)cc2[C@@H](N(Cc2cc(C(F)(F)F)cc(C(F)(F)F)c2)C(=O)OC)C[C@H]1CC
classification: label 1

compound: c1cc(OCCN2CCCCC2)cc(-c2n[nH]c3ccc(-c4ncn[nH]4)cc23)c1
classification: label 1

compound: O=C(Nc1ncc(SCCN2CCCC2)s1)[C@]1(c2ccc(S(=O)(=O)C3CC3)cc2)C[C@@H]1C1CCCCC1
classification: label 1

compound: O=C(Nc1cccc(Cl)c1)Nc1ncc(CCNc2ncnc3ccsc23)s1
classification: label 1

compound: O=C1CCCC(=O)C1C(=O)c1ccc(C(F)(F)F)cc1[N+](=O)[O-]
classification: label 0

compound: C=C[C@@H]1CN2CCC1C[C@@H]2C(O)c1ccnc2ccc(OC)cc12 (stereo partly drawn)
classification: label 1

compound: Cc1c(-c2cccc3c(CCCOc4cccc5ccccc45)c(C(=O)O)n(Cc4cccnc4)c23)c(COc2ccc(N3CCN([S+](=O)([O-])N(C)C)CC3)cc2)nn1C
classification: label 1

###

- assay-overview: qHTS assay for measurement of the activity of small molecule inhibitors on Zika virus induced Caspase-3 activity in human astrocytoma cells (AID 1224859);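 further: plate controls were ZIKV-infected untreated cells for no effect and uninfected cells for full effect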
- details: SNB-19 ZIKV-induced caspase-3/7, luminescence, 6 h; series mostly up to 45.7 µM
Calls of active or inactive are those of the source. Calls come from the whole dose curve; as a rule, active = well fitted inhibition curve with a large enough effect; inconclusive = small, poorly fitted or top-dose-only effect; inactive = no such curve, though single readings can be large or run the other way.

compound: O=C1CN2Cc3c(ccc(Cl)c3Cl)N=C2N1
outcome: inactive
--
compound: CCN(CCO)CCCOc1ccc2c(Nc3cc(CC(=O)Nc4cccc(F)c4)[nH]n3)ncnc2c1
outcome: inactive
--
compound: CN(C)CCOc1ccc(C(=C(CCCl)c2ccccc2)c2ccccc2)cc1
outcome: inactive
--
compound: CCn1c(-c2nonc2N)nc2cncc(CNC3CCNCC3)c21
outcome: inactive
--
compound: COc1cc2nccc(Oc3ccc(NC(=O)Nc4cc(C)on4)c(Cl)c3)c2cc1OC
outcome: inactive
--
compound: COc1ccc(-c2ccc3ncc4c(c3c2)n(-c2ccc(N3CCNCC3)c(C(F)(F)F)c2)c(=O)n4C)cn1
outcome: inactive
--
compound: Cc1ccc(NC(=O)c2ccc(CN3CCN(C)CC3)cc2)cc1Nc1nc(-c2cccnc2)cs1
outcome: inactive
--
compound: CO[C@H]1/C=C\O[C@@]2(C)Oc3c(C)c(O)c4c(O)c(c5c(nc6cc(C)ccn65)c4c3C2=O)NC(=O)C(C)=CC=C[C@H](C)[C@H](O)[C@@H](C)[C@@H](O)[C@@H](C)[C@H](OC(C)=O)[C@H]1C
outcome: inactive
--
compound: Cc1cc2c(cc1C1(c3ccc(C(=O)O)cn3)CC1)C(C)(C)CCC2(C)C
outcome: inactive
--
compound: CO[C@@H]1C(N(C)C(=O)c2ccccc2)C[C@H]2O[C@]1(C)n1c3ccccc3c3c4c(c5c6ccccc6n2c5c31)C(=O)NC4=O (stereo partly specified)
outcome: inactive
--
compound: CNc1nc(-c2ccc3c(N)n[nH]c3c2)cc(N2C[C@@H](C(=O)NC3CCCCC3)CC[C@@H]2C)n1
outcome: inactive
--
compound: Cc1ccccc1-n1c(Cn2nc(-c3cccc(O)c3)c3c(N)ncnc32)nc2cccc(C)c2c1=O
outcome: inactive
--
compound: CS(=O)(=O)c1ccc(C2=C(c3ccccc3)C(=O)OC2)cc1
outcome: inactive
--
compound: CCC[C@H](Nc1nc(-c2ccc(NC(=O)NCC)c(OC)c2)ncc1C)c1cccnc1
outcome: inactive
--
compound: Cc1ccc(C(=O)N(CCCN)[C@@H](c2nc3cc(Cl)ccc3c(=O)n2Cc2ccccc2)C(C)C)cc1
outcome: inactive
--
compound: CNC(=O)[C@H](Cc1ccccc1)NC(=O)[C@H](CC(C)C)[C@H](CSc1cccs1)C(=O)NO
outcome: inactive
--
compound: CN(C)c1ccc(-c2nc3ncc(Cl)c(N4CCN(CC(=O)Nc5nccs5)CC4)c3[nH]2)cc1
outcome: inactive
--
compound: CC(C)C[C@H](NC(=O)c1cc2ccccc2s1)C(=O)N1CCN(C(=O)[C@H](CO)NS(=O)(=O)c2ccc(Cl)cc2Cl)CC1
outcome: inactive
--
compound: COc1ccc(-c2oc3c(CC=C(C)C)c(O)cc(O)c3c(=O)c2O)cc1
outcome: inactive
--
compound: C[C@]12C=CC(=O)C=C1CC[C@@H]1[C@@H]2[C@@H](O)C[C@@]2(C)[C@@H]1CC[C@]2(O)C(=O)CO
outcome: inactive
--
compound: Cc1ccc(C(=O)N(CCCN)[C@@H](c2oc3cc(Cl)ccc3c(=O)c2Cc2ccccc2)C(C)C)cc1
outcome: inactive
--
compound: C[C@H](CCC(=O)O)[C@H]1CC[C@H]2[C@H]3[C@@H](CC[C@]12C)[C@@]1(C)CC[C@@H](O)C[C@H]1C[C@@H]3O
outcome: inactive
--
compound: O=C(c1ccc(C(=O)N2CCC(N3CCCC3)CC2)c(Nc2ccccc2)c1)N1CCC(N2CCCC2)CC1
outcome: inactive
--
compound: O=C(Nc1cccc(Cl)c1)Nc1ncc(CCNc2ncnc3ccsc23)s1
outcome: inactive
--
compound: C[C@H]1O[C@@H](n2cc(F)c(=O)[nH]c2=O)[C@H](O)[C@H]1O
outcome: inactive
--
compound: Nc1ncnc2c1ncn2[C@@H]1O[C@H](CO)[C@@H](O)[C@@H]1O
outcome: inactive
--
compound: CCN(CC)CCCCNc1nc2cc(Cl)c(Cl)cc2nc1-c1ccc(-c2cccs2)s1
outcome: inactive
--
compound: COc1ccc(-c2cc3nccn3c(Nc3ncccc3C(N)=O)n2)cc1OC
outcome: inactive
--
compound: Fc1ccc(C(c2ccc(F)cc2)N2CCN(CC=Cc3ccccc3)CC2)cc1
outcome: inactive
--
compound: C[C@]12CCC3=C4CCC(=O)C=C4CC[C@@H]3[C@H]1CC[C@@]2(O)CC#N
outcome: inactive
--
compound: C#C[C@]1(O)CC[C@H]2[C@H]3CCc4cc(OC)ccc4[C@H]3CC[C@@]21C
outcome: inactive
--
compound: COc1nc(C)cnc1NS(=O)(=O)c1cccnc1-c1ccc(-c2nnco2)cc1
outcome: inactive
--
compound: COc1cc2nc(-c3cc(F)ccc3O)nc(N[C@@H]3CNC[C@@H]3C(C)(C)O)c2cc1OC
outcome: inactive
--
compound: CC(C)C[C@@H](N)[C@H](O)C(=O)N[C@H](C(=O)N[C@H](C(=O)N[C@@H](CC(=O)O)C(=O)O)C(C)C)C(C)C
outcome: inactive
--
compound: N#CC(=C1Nc2ccccc2S1)c1ccnc(OCc2ccc(CN3CCOCC3)cc2)n1
outcome: inactive
--
compound: C[C@@]1(C(=O)Nc2ccc(F)nc2)CCCN1c1nc(Nc2cc(C3CC3)[nH]n2)c2cccn2n1
outcome: inactive
